Target: aggrecanase-1 (Homo sapiens)
Sequence (O75173 213-837): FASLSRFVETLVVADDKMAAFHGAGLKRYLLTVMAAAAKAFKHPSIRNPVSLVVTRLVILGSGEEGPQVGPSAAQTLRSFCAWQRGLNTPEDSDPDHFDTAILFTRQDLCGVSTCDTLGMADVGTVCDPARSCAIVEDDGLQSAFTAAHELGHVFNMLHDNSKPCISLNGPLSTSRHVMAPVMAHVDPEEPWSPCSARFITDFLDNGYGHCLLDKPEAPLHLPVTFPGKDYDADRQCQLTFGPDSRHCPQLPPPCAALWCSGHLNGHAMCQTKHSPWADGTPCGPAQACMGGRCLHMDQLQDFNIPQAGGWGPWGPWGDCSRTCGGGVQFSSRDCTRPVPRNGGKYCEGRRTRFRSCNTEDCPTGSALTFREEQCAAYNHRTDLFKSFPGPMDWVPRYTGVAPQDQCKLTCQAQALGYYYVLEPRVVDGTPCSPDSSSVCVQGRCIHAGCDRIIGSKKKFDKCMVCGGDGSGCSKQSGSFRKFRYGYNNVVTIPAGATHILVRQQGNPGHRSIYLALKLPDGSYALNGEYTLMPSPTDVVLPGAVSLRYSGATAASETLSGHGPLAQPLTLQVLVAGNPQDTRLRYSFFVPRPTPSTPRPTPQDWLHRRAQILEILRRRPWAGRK
Experiment: Aggrecanase-1 inhibitory action (Particle Assay, GAG release from aggrecan-containing polyacrylamide particles)
Format: biochemical
Conditions: aggrecanase-1 inhibitory action; read-out: IC50 AG1 (Experimental Example 1)
Entries and their IC50

Some entries whose results are on file:
input: Recall the recorded IC50 for O=C(O)C1(NS(=O)(=O)c2ccc(-c3ccc(Cl)cc3)s2)CC1c1ccc(CO)cc1 (stereo not drawn) [Example 2-226] with aggrecanase-1 (Homo sapiens) and state it.
output: < 1000 nM

input: Recall the recorded IC50 for O=C(O)C1(NS(=O)(=O)c2ccc(-c3ccc(Cl)cc3)cc2)CC1c1cccc(Nc2ccccn2)c1 (stereo not drawn) [Example 1-61] with aggrecanase-1 (Homo sapiens) and state it.
output: < 1000 nM

Turning now to a further record.
input: Recall the recorded IC50 for COc1cccc(C2CC2(NS(=O)(=O)c2ccc(-c3ccc(Cl)cc3)cc2)C(=O)O)c1 (stereo not drawn) [Example 1-12] with aggrecanase-1 (Homo sapiens) and state it.
output: < 1000 nM
